All values here come from ChEMBL document CHEMBL5634108.

biological target: NT-3 growth factor receptor (Homo sapiens, UniProt Q16288); assay: Inhibition of TRKC (unknown origin) by TR-FRET assay
Sequence (Q16288 whole entry): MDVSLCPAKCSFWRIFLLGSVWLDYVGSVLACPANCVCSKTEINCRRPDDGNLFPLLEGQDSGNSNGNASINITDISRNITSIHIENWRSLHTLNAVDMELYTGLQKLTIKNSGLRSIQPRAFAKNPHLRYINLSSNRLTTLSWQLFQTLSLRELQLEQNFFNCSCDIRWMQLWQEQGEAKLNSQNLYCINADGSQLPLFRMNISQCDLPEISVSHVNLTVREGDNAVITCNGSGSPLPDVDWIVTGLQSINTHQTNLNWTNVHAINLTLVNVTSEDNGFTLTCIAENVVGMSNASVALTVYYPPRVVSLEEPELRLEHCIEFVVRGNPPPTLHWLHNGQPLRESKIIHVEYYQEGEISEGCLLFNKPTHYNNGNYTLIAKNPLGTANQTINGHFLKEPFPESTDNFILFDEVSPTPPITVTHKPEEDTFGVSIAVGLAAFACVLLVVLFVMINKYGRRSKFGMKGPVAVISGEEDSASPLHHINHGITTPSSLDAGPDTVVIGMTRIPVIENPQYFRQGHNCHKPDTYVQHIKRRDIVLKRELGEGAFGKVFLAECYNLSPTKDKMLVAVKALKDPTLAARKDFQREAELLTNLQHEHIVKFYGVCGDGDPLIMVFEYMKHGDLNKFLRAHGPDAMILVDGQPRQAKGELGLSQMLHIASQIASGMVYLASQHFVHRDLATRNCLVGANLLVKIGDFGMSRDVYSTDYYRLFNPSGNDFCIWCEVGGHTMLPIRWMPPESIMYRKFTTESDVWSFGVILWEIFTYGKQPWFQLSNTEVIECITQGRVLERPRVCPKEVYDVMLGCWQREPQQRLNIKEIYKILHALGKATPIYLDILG
recorded_metric: IC50 (nM)
Please respond with the number in nM and leave the unit unwritten.

Item: FC(F)(F)c1ccc(CNc2ccc(Cc3c[nH]c4ncc(Cl)cc34)cn2)cn1 | IC50: 20

* * *

biological target: Macrophage colony-stimulating factor 1 receptor (Homo sapiens, UniProt P07333); experiment: Inhibition of FMS (unknown origin) by kinase assay
Sequence (P07333 whole entry): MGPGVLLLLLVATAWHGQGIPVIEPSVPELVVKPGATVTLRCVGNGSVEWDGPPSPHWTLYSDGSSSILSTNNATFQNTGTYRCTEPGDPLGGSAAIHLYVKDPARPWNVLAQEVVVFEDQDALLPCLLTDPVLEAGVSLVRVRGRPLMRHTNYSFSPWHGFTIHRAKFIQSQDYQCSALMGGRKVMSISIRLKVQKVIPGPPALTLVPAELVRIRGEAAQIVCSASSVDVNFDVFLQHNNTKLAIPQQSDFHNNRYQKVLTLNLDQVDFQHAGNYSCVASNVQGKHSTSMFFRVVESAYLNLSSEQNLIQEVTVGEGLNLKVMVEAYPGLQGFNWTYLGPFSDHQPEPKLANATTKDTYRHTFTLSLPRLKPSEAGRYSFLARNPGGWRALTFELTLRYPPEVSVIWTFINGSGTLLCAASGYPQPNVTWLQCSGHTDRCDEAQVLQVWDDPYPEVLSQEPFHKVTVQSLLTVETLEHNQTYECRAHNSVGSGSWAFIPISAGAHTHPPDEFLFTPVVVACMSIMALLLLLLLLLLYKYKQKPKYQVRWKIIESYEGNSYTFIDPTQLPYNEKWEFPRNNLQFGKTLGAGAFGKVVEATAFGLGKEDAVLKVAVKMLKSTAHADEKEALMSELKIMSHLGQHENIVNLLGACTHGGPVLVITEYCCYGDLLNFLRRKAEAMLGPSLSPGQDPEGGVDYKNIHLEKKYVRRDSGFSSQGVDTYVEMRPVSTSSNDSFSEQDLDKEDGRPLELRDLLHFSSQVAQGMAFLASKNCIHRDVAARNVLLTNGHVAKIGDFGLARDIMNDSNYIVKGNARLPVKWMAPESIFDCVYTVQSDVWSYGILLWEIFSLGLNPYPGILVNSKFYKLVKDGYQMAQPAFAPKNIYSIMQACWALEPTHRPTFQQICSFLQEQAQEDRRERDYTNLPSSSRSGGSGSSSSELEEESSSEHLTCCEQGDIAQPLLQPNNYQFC
recorded_metric: IC50 (nM)
Give the value in nM but do not write nM after it.

IC50 reading for COc1cc(NC(=O)Nc2cnc(Nc3ccc(N4CCOCC4)cc3)nc2Oc2cccc(OC)c2)cc(OC)c1 : 15
